Please provide measured pIC50 for the entries that follow.
Target: G6PD (Homo sapiens, UniProt P11413)
Sequence (P11413 28-515): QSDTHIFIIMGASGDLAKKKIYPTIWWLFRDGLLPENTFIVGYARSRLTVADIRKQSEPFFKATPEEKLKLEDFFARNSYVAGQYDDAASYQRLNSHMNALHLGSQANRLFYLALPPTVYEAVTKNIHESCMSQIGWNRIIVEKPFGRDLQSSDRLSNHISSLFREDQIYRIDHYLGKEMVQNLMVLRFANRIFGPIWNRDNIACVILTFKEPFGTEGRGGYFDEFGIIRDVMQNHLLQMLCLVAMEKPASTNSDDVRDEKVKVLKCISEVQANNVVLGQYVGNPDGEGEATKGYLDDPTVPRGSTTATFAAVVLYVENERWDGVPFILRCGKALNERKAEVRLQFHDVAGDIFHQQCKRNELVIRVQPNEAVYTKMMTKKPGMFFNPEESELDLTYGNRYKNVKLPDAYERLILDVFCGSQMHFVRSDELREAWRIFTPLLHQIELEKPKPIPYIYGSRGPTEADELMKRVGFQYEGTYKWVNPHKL
Experiment: G6PD enzymatic activity by diaphorase-coupled assay
pIC50: −log10 of the molar value.

Study these solved cases before continuing.
[ask] Report the value of pIC50 obtained on G6PD (Homo sapiens, UniProt P11413) for N#Cc1cc(Nc2ncc3c(n2)CCCC(Br)C3=O)cs1 (centres unmarked) .
[reply] > 6.00

[ask] Report the value of pIC50 obtained on G6PD (Homo sapiens, UniProt P11413) for Cc1ccc(Nc2ncc3c(n2)CCCCC3=O)cc1C#N .
[reply] > 6.00

[ask] Report the value of pIC50 obtained on G6PD (Homo sapiens, UniProt P11413) for N#Cc1cc(Nc2ncc3c(n2)CCC(O)C3=O)cs1 (centres unmarked) .
[reply] > 6.00

Please give pIC50 for each item listed below.
1. N#Cc1cc(Nc2ncc3c(n2)CCCCC3=O)cc(OCc2ccc3c(c2)OCO3)c1
2. CCCCOc1cc(C#N)cc(Nc2ncc3c(n2)CCCCC3=O)c1
3. CCCCc1cc(C#N)cc(Nc2ncc3c(n2)CCCCC3=O)c1
4. CCC(CC)Oc1cc(C#N)cc(Nc2ncc3c(n2)CCCCC3=O)c1
5. O=C1CCCCc2nc(Nc3ccc(-c4nnn[nH]4)cc3)ncc21
6. N#Cc1cc(Nc2ncc3c(n2)CCCCC3=O)cc(OCc2cccc(CO)c2)c1
7. N#C/C=C1/CCCCc2nc(Nc3csc(C#N)c3)ncc21

[reply]
1. > 6.00
2. 3.00 to 6.00
3. 3.00 to 6.00
4. 3.00 to 6.00
5. > 6.00
6. > 6.00
7. 3.00 to 6.00

[ask] Report the value of pIC50 obtained on G6PD (Homo sapiens, UniProt P11413) for N#Cc1cc(Nc2ncc3c(n2)CCC(Br)C3=O)cs1 (centres unmarked) .
[reply] > 6.00

Origin of values: patent US20230348401A1
